# MIC values compiled below
# Test system: Staphylococcus epidermidis
# test-protocol: Antibacterial activity against Staphylococcus epidermidis 56500 was determined
# Format: functional

[
  {
    "compound": "Nc1c(F)c(N2C[C@H]3CC[C@H]4C[C@@]4(N)[C@H]3C2)c(F)c2c1c(=O)c(C(=O)O)cn2[C@@H]1C[C@@H]1F (stereo in doubt; 14 (-))",
    "output-unit": "µg/mL",
    "MIC": 0.02
  },
  {
    "compound": "Nc1c(F)c(N2C[C@H]3C[C@@H]4C[C@@H]4[C@H](N)[C@H]3C2)c(F)c2c1c(=O)c(C(=O)O)cn2[C@@H]1C[C@@H]1F (stereo in doubt; 27 (-))",
    "output-unit": "µg/mL",
    "MIC": 0.006
  },
  {
    "compound": "Nc1c(F)c(N2C[C@H]3C[C@@H]4C[C@@H]4[C@@H](N)[C@H]3C2)c(F)c2c1c(=O)c(C(=O)O)cn2[C@@H]1C[C@@H]1F (stereo in doubt; 25 (-))",
    "output-unit": "µg/mL",
    "MIC": 0.05
  },
  {
    "compound": "Nc1c(F)c(N2C[C@H]3CCC[C@@H](N)[C@H]3C2)c(F)c2c1c(=O)c(C(=O)O)cn2[C@@H]1C[C@@H]1F (stereo in doubt; 29 (-))",
    "output-unit": "µg/mL",
    "MIC": 0.2
  }
]

---

Let's look at some molecules and their measured pIC50.
# study-target: DNA topoisomerase 4 subunit A (Staphylococcus aureus subsp. aureus Mu50, UniProt Q931S2)
# Sequence (Q931S2 whole entry): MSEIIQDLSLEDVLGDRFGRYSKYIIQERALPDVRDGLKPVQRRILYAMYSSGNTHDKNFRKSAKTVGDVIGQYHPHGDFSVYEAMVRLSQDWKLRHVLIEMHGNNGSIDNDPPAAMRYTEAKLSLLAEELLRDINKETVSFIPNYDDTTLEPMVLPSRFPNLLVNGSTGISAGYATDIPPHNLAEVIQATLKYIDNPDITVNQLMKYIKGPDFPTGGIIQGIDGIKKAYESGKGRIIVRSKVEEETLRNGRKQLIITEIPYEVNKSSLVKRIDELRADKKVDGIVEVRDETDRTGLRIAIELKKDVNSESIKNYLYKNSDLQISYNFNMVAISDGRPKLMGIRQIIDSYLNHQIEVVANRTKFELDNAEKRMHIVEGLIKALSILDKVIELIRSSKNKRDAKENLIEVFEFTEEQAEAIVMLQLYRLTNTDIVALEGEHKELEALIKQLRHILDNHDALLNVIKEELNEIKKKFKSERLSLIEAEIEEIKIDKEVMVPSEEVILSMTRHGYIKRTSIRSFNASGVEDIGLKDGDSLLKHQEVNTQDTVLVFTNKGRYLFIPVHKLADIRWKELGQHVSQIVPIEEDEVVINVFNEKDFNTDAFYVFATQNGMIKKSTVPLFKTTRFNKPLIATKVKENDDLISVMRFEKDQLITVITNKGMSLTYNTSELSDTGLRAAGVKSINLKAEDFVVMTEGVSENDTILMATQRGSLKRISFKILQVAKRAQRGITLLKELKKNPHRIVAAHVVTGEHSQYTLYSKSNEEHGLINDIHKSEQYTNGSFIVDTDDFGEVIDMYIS
# test-protocol: Inhibitory concentration against Staphylococcus aureus DNA topoisomerase IV
pIC50: −log10 of the molar value.
experimental-readout: pIC50

[
  {
    "molecule": "Cc1c(N2C[C@H]3CC[C@H]4C[C@@]4(N)[C@H]3C2)c(F)c(N)c2c(=O)c(C(=O)O)cn([C@@H]3C[C@@H]3F)c12",
    "value-reported": 6.09
  },
  {
    "molecule": "Nc1c(F)c(N2C[C@H]3C[C@@H]4C[C@@H]4[C@H](N)[C@H]3C2)c(F)c2c1c(=O)c(C(=O)O)cn2[C@@H]1C[C@@H]1F (stereo in doubt; 26 (+))",
    "value-reported": 6.07
  },
  {
    "molecule": "Nc1c(F)c(N2C[C@H]3CCC[C@@H](N)[C@H]3C2)c(F)c2c1c(=O)c(C(=O)O)cn2[C@@H]1C[C@@H]1F (stereo in doubt; 28 (+))",
    "value-reported": 6.38
  },
  {
    "molecule": "Cc1c(N2C[C@H]3CCC[C@@H](N)[C@H]3C2)c(F)c(N)c2c(=O)c(C(=O)O)cn([C@@H]3C[C@@H]3F)c12",
    "value-reported": 6.14
  },
  {
    "molecule": "Nc1c(F)c(N2C[C@H]3CC[C@H]4C[C@@]4(N)[C@H]3C2)c(F)c2c1c(=O)c(C(=O)O)cn2[C@@H]1C[C@@H]1F (stereo in doubt; 13 (+))",
    "value-reported": 6.17
  },
  {
    "molecule": "Nc1c(F)c(N2C[C@H]3C[C@@H]4C[C@@H]4[C@@H](N)[C@H]3C2)c(F)c2c1c(=O)c(C(=O)O)cn2[C@@H]1C[C@@H]1F (stereo in doubt; 24 (+))",
    "value-reported": 6.51
  }
]

---

# Test system: Staphylococcus epidermidis
# test-protocol: Antibacterial activity against Staphylococcus epidermidis 56500 was determined
# Type: functional
experimental-readout: MIC

[
  {
    "compound": "Nc1c(F)c(N2C[C@H]3CC[C@H]4C[C@@]4(N)[C@H]3C2)c(F)c2c1c(=O)c(C(=O)O)cn2[C@@H]1C[C@@H]1F (stereo in doubt; 13 (+))",
    "experimental-readout": "MIC",
    "value-reported": "<=0.003 ug ml-1"
  },
  {
    "compound": "Nc1c(F)c(N2C[C@H]3CCC[C@@H](N)[C@H]3C2)c(F)c2c1c(=O)c(C(=O)O)cn2[C@@H]1C[C@@H]1F (stereo in doubt; 28 (+))",
    "experimental-readout": "MIC",
    "value-reported": "<=0.003 ug ml-1"
  },
  {
    "compound": "Nc1c(F)c(N2C[C@H]3C[C@@H]4C[C@@H]4[C@@H](N)[C@H]3C2)c(F)c2c1c(=O)c(C(=O)O)cn2[C@@H]1C[C@@H]1F (stereo in doubt; 24 (+))",
    "experimental-readout": "MIC",
    "value-reported": "<=0.003 ug ml-1"
  }
]
